Tested on: TAB109
Experiment: qHTS profiling for inhibitors of Plasmodium falciparum proliferation (AID 504749); note: nearly all actives have a fitted effect of over 60% in size
Settings: P. falciparum in erythrocytes, SYBR Green DNA, 72 h; series mostly up to 28.7 µM
Inconclusive results are not listed. Active and inactive are the calls of the source. Calls come from the whole dose curve; as a rule, active = well fitted inhibition curve with a large enough effect; inconclusive = small, poorly fitted or top-dose-only effect; inactive = flat fitted curve, though single readings scatter.
Please reply with one of these outcomes: active, inactive

Ask | Recorded test outcome, item `O=c1oc2cc(O)ccc2s1`
Reply | inactive

Ask | Recorded test outcome, item CCN(CCO)CCCC(C)Nc1ccnc2cc(Cl)ccc12 (stereo not drawn)
Reply | inactive

Ask | Recorded test outcome, item `COc1ccc2cc([C@H](C)C(=O)O)ccc2c1`
Reply | inactive

Ask | Recorded test outcome, item `C[C@]12CCC(=O)C=C1CC[C@@H]1[C@H]2[C@@H](O)C[C@@]2(C)[C@H]1CC[C@]2(O)C(=O)CO`
Reply | inactive

Ask | Recorded test outcome, item `C[C@H](Cn1cnc2c(N)ncnc21)OCP(=O)(O)O`
Reply | inactive

Ask | Recorded test outcome, item `CN1C(C(=O)Nc2ccccn2)=C(O)c2sccc2S1(=O)=O`
Reply | inactive

Ask | Recorded test outcome, item `CCCCc1ccc2nc(NC(=O)OC)[nH]c2c1`
Reply | inactive

Ask | Recorded test outcome, item `CC1(C)CCC(C)(C)c2cc(NC(=O)c3ccc(C(=O)O)cc3)ccc21`
Reply | inactive

Ask | Recorded test outcome, item `CN(C)c1ccc2nc3ccc(=[N+](C)C)cc-3sc2c1`
Reply | active

Ask | Recorded test outcome, item COc1ccc(C2(C#N)CCC(C(=O)O)CC2)cc1OC1CCCC1 (stereo not drawn)
Reply | inactive

Ask | Recorded test outcome, item COc1cc2c(cc1OC)C1CC(=O)C(CC(C)C)CN1CC2 (stereo not drawn)
Reply | inactive

Ask | Recorded test outcome, item `CNC[C@@H](O)[C@@H](O)[C@H](O)[C@H](O)CO`
Reply | inactive

Ask | Recorded test outcome, item `Cc1nc(Nc2ncc(C(=O)Nc3c(C)cccc3Cl)s2)cc(N2CCN(CCO)CC2)n1`
Reply | inactive

Ask | Recorded test outcome, item `CCN(CC)CCOc1ccc(Cc2ccccc2)cc1`
Reply | inactive

Ask | Recorded test outcome, item `CNC[C@H](O)c1ccc(O)c(O)c1`
Reply | inactive

Ask | Recorded test outcome, item O=C(NC(Cc1cc(=O)[nH]c2ccccc12)C(=O)O)c1ccc(Cl)cc1 (stereo not drawn)
Reply | inactive

Ask | Recorded test outcome, item `O=C(O)c1cccc(-c2noc(-c3ccccc3F)n2)c1`
Reply | inactive

Ask | Recorded test outcome, item `COc1cc(OC)c(C(=O)CCCN2CCCC2)c(OC)c1`
Reply | inactive

Ask | Recorded test outcome, item `Cc1cc(=O)c2c(O)c3c(O)cc(=O)c4c3c3c(cc(O)c1c23)C(C)(C)C=4O`
Reply | active

Ask | Recorded test outcome, item `Cc1cccc(C)c1OCC(=O)N[C@@H](Cc1ccccc1)[C@@H](O)C[C@H](Cc1ccccc1)NC(=O)[C@H](C(C)C)N1CCCNC1=O`
Reply | active

Ask | Recorded test outcome, item `CC(C)(S)[C@@H](N)C(=O)O`
Reply | inactive

Ask | Recorded test outcome, item Clc1ccc(C(Cn2ccnc2)OCc2ccsc2Cl)c(Cl)c1 (stereo not drawn)
Reply | active

Ask | Recorded test outcome, item `CCCCCCCCOc1ccccc1C(=O)Nc1ccc(C(=O)OCC[N+](C)(CC)CC)cc1`
Reply | active

Ask | Recorded test outcome, item `Cc1cc2c(s1)Nc1ccccc1N=C2N1CCN(C)CC1`
Reply | inactive

Ask | Recorded test outcome, item Nc1cccc2c1CN(C1CCC(=O)NC1=O)C2=O (stereo not drawn)
Reply | inactive

Ask | Recorded test outcome, item `CCOC(=O)c1c(C)n(C)c2ccc(O)cc12`
Reply | inactive

Ask | Recorded test outcome, item Nc1ccn([C@@H]2O[C@H](CO)[C@@H](O)C2O)c(=O)n1 (stereo partly drawn)
Reply | inactive

Ask | Recorded test outcome, item `O=C(O)c1cc(=O)c2c(OCC(O)COc3cccc4oc(C(=O)O)cc(=O)c34)cccc2o1`
Reply | inactive

Ask | Recorded test outcome, item `CC(C)c1ccc2oc3nc(N)c(C(=O)O)cc3c(=O)c2c1`
Reply | inactive

Ask | Recorded test outcome, item Cc1ncc([N+](=O)[O-])n1CC(C)O (stereo not drawn)
Reply | inactive

Ask | Recorded test outcome, item `Nc1ccc(S(N)(=O)=O)cc1`
Reply | inactive

Ask | Recorded test outcome, item COCCCOc1ccnc(CS(=O)c2nc3ccccc3[nH]2)c1C (stereo not drawn)
Reply | inactive

Ask | Recorded test outcome, item `O=C(NCCO[N+](=O)[O-])c1cccnc1`
Reply | inactive

Ask | Recorded test outcome, item O=C(OC1C[C@H]2CC[C@@H](C1)[N+]21CCCC1)C(O)(c1ccccc1)c1ccccc1 (stereo partly drawn)
Reply | active

Ask | Recorded test outcome, item `C=C(c1ccc(C(=O)O)cc1)c1cc2c(cc1C)C(C)(C)CCC2(C)C`
Reply | inactive

Ask | Recorded test outcome, item `Cc1nc2n(c(=O)c1CCN1CCC(c3noc4cc(F)ccc34)CC1)CCCC2`
Reply | inactive

Ask | Recorded test outcome, item `CCCc1cc(=O)[nH]c(=S)[nH]1`
Reply | inactive

Ask | Recorded test outcome, item `Oc1ccc(OCc2ccccc2)cc1`
Reply | inactive

Ask | Recorded test outcome, item `CCCCCCCCCCCCCCCCCCCCCCO`
Reply | inactive

Ask | Recorded test outcome, item COC(=O)C1=C(C)NC(C)=C(C(=O)OCCCN2CCC(c3ccccc3)(c3ccccc3)CC2)C1c1cccc([N+](=O)[O-])c1 (stereo not drawn)
Reply | active

Ask | Recorded test outcome, item CC(S)C(=O)NCC(=O)O (stereo not drawn)
Reply | inactive

Ask | Recorded test outcome, item `COC1=C(OC)C(=O)C(CCCCCCCCCCO)=C(C)C1=O`
Reply | inactive

Ask | Recorded test outcome, item CCC1=C(C)CN(C(=O)NCCc2ccc(S(=O)(=O)NC(=O)NC3CCC(C)CC3)cc2)C1=O (stereo not drawn)
Reply | inactive
